system: ATP; test: switch fluorescence ratio, 500 uM ATP over buffer (Cy3 cluster intensity, sum of 5 cycles each) (fold (ratio)); higher = stronger signal-on switching upon ATP binding; sequences stand for … in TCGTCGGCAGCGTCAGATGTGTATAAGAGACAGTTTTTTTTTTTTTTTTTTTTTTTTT…TC; conditions: aptamer strand: ATP DNA aptamer (quencher-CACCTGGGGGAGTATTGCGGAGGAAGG + anchor), 100 nM annealed; ATP concentration: 500 uM;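 also: ATP exposure 15 min at 22 °C before imaging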
Outcome label depends on switch fluorescence ratio relative to 1: at/above gives t, below gives f.

# QUERY SEQUENCE, ANSWER LABEL
measured = [
    ("TAGGAGGCGG", "f"),
    ("GTGAGTGTAT", "f"),
    ("TTGACCGGGA", "t"),
    ("AAGGGGGTGT", "f"),
    ("AATGTGCCTT", "t"),
    ("CGGGGGTTGA", "t"),
    ("CGGATCTCGC", "t"),
    ("AGGGTTTGCT", "f"),
    ("TAATCCGCTT", "t"),
    ("TTCGTTCGAA", "t"),
    ("ATGTCCGGG", "f"),
    ("TTAGGTTGCT", "t"),
    ("TTTTTTGCGA", "t"),
    ("CTCGCTGCGG", "t"),
    ("CGAAAATGGT", "t"),
    ("AACTGGGGA", "f"),
    ("GGTCCCGGGG", "t"),
    ("AAGGGCCGGG", "f"),
]

* * *

test system: ATP; assay: switch fluorescence ratio, 500 uM ATP over buffer (Cy3 cluster intensity, sum of 5 cycles each) (fold (ratio)); higher = stronger signal-on switching upon ATP binding; sequences stand for … in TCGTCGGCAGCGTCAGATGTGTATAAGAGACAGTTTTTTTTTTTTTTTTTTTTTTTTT…TC; details: aptamer strand: ATP DNA aptamer (quencher-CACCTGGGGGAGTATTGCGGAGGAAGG + anchor), 100 nM annealed; ATP concentration: 500 uM;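 also: ATP exposure 15 min at 22 °C before imaging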
This section presents sequences with their documented switch fluorescence ratio values.
TEST READOUT: switch fluorescence ratio

# QUERY SEQUENCE, TEST READOUT, RECORDED MEASUREMENT
rows = [
    ("GGGGTGATTG", "switch fluorescence ratio", 0.979),
    ("TTCGTCAGTG", "switch fluorescence ratio", 0.986),
    ("AGTTAATAAA", "switch fluorescence ratio", 1),
    ("TTAGGGGGTC", "switch fluorescence ratio", 0.998),
    ("ATTAAGGCAA", "switch fluorescence ratio", 1.1),
    ("CTAGCGGCCA", "switch fluorescence ratio", 0.991),
    ("CGGTCGATCC", "switch fluorescence ratio", 1),
    ("GGGACCATAT", "switch fluorescence ratio", 1.03),
    ("GATTGAACGG", "switch fluorescence ratio", 0.997),
    ("CATTAATGGG", "switch fluorescence ratio", 1.01),
    ("GGCGTCAGGG", "switch fluorescence ratio", 1),
    ("GGTTTATCGT", "switch fluorescence ratio", 0.974),
    ("TAAACGCGTA", "switch fluorescence ratio", 0.998),
    ("TGGCTTACAG", "switch fluorescence ratio", 1),
    ("TACATCGTTT", "switch fluorescence ratio", 1),
    ("TAGGTGCCGT", "switch fluorescence ratio", 1),
    ("TCGGAGGCTT", "switch fluorescence ratio", 1),
    ("GGTGAGGGGA", "switch fluorescence ratio", 1.01),
    ("GAACGGGAAT", "switch fluorescence ratio", 1.02),
    ("AGAGAGGCTA", "switch fluorescence ratio", 1),
]

* * *

tested on: ATP; experiment: switch fluorescence ratio, 500 uM ATP over buffer (Cy3 cluster intensity, sum of 5 cycles each) (fold (ratio)); higher = stronger signal-on switching upon ATP binding; sequences stand for … in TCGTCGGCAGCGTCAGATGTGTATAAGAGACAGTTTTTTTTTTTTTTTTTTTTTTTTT…TC; settings: aptamer strand: ATP DNA aptamer (quencher-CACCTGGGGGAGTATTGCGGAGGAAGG + anchor), 100 nM annealed; ATP concentration: 500 uM;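 also: ATP exposure 15 min at 22 °C before imaging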
TEST READOUT: switch fluorescence ratio

# QUERY SEQUENCE, EXPERIMENTAL TARGET, TEST READOUT, RECORDED MEASUREMENT
measured = [
    ("GGAGTTGCGC", "ATP", "switch fluorescence ratio", 1.03),
    ("GGGTAGGGAA", "ATP", "switch fluorescence ratio", 0.998),
    ("CATGTAAGGC", "ATP", "switch fluorescence ratio", 1.03),
    ("AGATAAACG", "ATP", "switch fluorescence ratio", 0.984),
    ("CGAGGGGGGT", "ATP", "switch fluorescence ratio", 1.02),
    ("TCGGTGGCGT", "ATP", "switch fluorescence ratio", 1.02),
    ("TGACATCTA", "ATP", "switch fluorescence ratio", 1.07),
    ("CGCGTTATGT", "ATP", "switch fluorescence ratio", 1.03),
    ("TCGGACATGG", "ATP", "switch fluorescence ratio", 1.02),
    ("AGGGGATTTG", "ATP", "switch fluorescence ratio", 0.999),
    ("TTTATAGGTC", "ATP", "switch fluorescence ratio", 0.994),
    ("AGAGTCGAGG", "ATP", "switch fluorescence ratio", 0.968),
    ("GCGAGGGATG", "ATP", "switch fluorescence ratio", 1),
    ("ATGTGGTTCC", "ATP", "switch fluorescence ratio", 1),
    ("GGTTAAGGCG", "ATP", "switch fluorescence ratio", 0.957),
    ("GGGTGTAGTG", "ATP", "switch fluorescence ratio", 0.988),
    ("GGCCGGAGGT", "ATP", "switch fluorescence ratio", 1),
]

* * *

test system: ATP; test: switch fluorescence ratio, 500 uM ATP over buffer (Cy3 cluster intensity, sum of 5 cycles each) (fold (ratio)); higher = stronger signal-on switching upon ATP binding; sequences stand for … in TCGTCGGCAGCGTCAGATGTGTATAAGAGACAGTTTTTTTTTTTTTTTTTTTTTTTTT…TC; conditions: aptamer strand: ATP DNA aptamer (quencher-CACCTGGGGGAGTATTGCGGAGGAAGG + anchor), 100 nM annealed; ATP concentration: 500 uM;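 also: ATP exposure 15 min at 22 °C before imaging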
Please enter fulfilled where switch fluorescence ratio is greater than or equal to 1, and not fulfilled where it is lower.

# QUERY SEQUENCE, ANSWER LABEL
data = [
    ("TTGGTGACCG", "fulfilled"),
    ("TAGTGAGGCG", "not fulfilled"),
    ("AATTAGGTTG", "not fulfilled"),
    ("TTATCGCGAC", "fulfilled"),
    ("CCTTGGGTTT", "fulfilled"),
    ("GTGTGGCTGG", "not fulfilled"),
    ("GTTTCCAGGT", "fulfilled"),
    ("CAGTAATATT", "fulfilled"),
    ("TTACCTGGCT", "fulfilled"),
    ("ATTGTAGTCT", "fulfilled"),
    ("GCCTTTTCTG", "not fulfilled"),
    ("AGGTGTATTG", "fulfilled"),
    ("ACGGGTTGTG", "not fulfilled"),
    ("AAGTATAGGT", "fulfilled"),
    ("GAAGAAAGGT", "not fulfilled"),
    ("GATGTGGCTT", "not fulfilled"),
    ("CGGTTGATCG", "not fulfilled"),
    ("CACAGCAGCG", "fulfilled"),
    ("TGCTTTGCCG", "fulfilled"),
]

* * *

test system: ATP; assay: switch fluorescence ratio, 500 uM ATP over buffer (Cy3 cluster intensity, sum of 5 cycles each) (fold (ratio)); higher = stronger signal-on switching upon ATP binding; sequences stand for … in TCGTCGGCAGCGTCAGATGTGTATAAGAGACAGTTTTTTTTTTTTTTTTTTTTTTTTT…TC; conditions: aptamer strand: ATP DNA aptamer (quencher-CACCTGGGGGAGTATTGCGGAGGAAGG + anchor), 100 nM annealed; ATP concentration: 500 uM;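 also: ATP exposure 15 min at 22 °C before imaging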
Reported switch fluorescence ratio is given for each of the following sequences.

# QUERY SEQUENCE, switch fluorescence ratio
rows = [
    ("AGCATTACCG", 1.16),
    ("GGGTTGTAGT", 1.02),
    ("CTTTTTAGTC", 1.03),
    ("TCAGGAAAAG", 0.989),
    ("AGATCTGGAG", 0.998),
    ("ATTAAGCACC", 1.3),
    ("TTATTACGG", 1),
    ("TTGTTTTGTT", 1.04),
    ("GACGTTTTGG", 0.997),
    ("GAGTAACCTG", 1.01),
    ("TTTGAGAGGT", 1.05),
    ("GGGGTTCAAT", 0.976),
    ("TCCCCATGGT", 2.07),
    ("AAAAGATTGG", 0.969),
]
